Recorded measurements of protein stability index, one per entry
B1: C1orf55 (parent)
chain: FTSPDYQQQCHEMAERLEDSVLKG

- Variants of: B1
- Protocol Summary: protein stability index of a GFP-peptide fusion (GPS, HEK-293T) (PSI 1-6); higher = more stable;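 further: lentivirally expressed fusions sorted by FACS into six bins by GFP to DsRed ratio, PSI derived from sequencing read proportions per bin multiplied by bin number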
- Condition Description: c terminus: a fixed tail appended
Property Name: protein stability index

- Mutant Code: "V21E"
  Property Name: "protein stability index"
  Endpoint Result: 2.87
- Mutant Code: "Q9K"
  Property Name: "protein stability index"
  Endpoint Result: 1.92
- Mutant Code: "P4L"
  Property Name: "protein stability index"
  Endpoint Result: 2.18
- Mutant Code: "T2E"
  Property Name: "protein stability index"
  Endpoint Result: 4.24
- Mutant Code: "Q8G"
  Property Name: "protein stability index"
  Endpoint Result: 2.81
- Mutant Code: "T2Y"
  Property Name: "protein stability index"
  Endpoint Result: 2.88
- Mutant Code: "Q9P"
  Property Name: "protein stability index"
  Endpoint Result: 2.59
- Mutant Code: "S20A"
  Property Name: "protein stability index"
  Endpoint Result: 1.95
- Mutant Code: "F1C"
  Property Name: "protein stability index"
  Endpoint Result: 4.43
- Mutant Code: "M13G"
  Property Name: "protein stability index"
  Endpoint Result: 2.56
- Mutant Code: "H11T"
  Property Name: "protein stability index"
  Endpoint Result: 2.1
- Mutant Code: "E12A"
  Property Name: "protein stability index"
  Endpoint Result: 2.79
- Mutant Code: "C10T"
  Property Name: "protein stability index"
  Endpoint Result: 2.26
- Mutant Code: "A14P"
  Property Name: "protein stability index"
  Endpoint Result: 2.48
- Mutant Code: "D19Q"
  Property Name: "protein stability index"
  Endpoint Result: 2.04
- Mutant Code: "L22T"
  Property Name: "protein stability index"
  Endpoint Result: 2.22
- Mutant Code: "E15M"
  Property Name: "protein stability index"
  Endpoint Result: 1.8
- Mutant Code: "S3P"
  Property Name: "protein stability index"
  Endpoint Result: 3.61
- Mutant Code: "V21D"
  Property Name: "protein stability index"
  Endpoint Result: 2.34
- Mutant Code: "R16C"
  Property Name: "protein stability index"
  Endpoint Result: 2.31
- Mutant Code: "T2N"
  Property Name: "protein stability index"
  Endpoint Result: 4.04
- Mutant Code: "T2Q"
  Property Name: "protein stability index"
  Endpoint Result: 2.87
